# reported ΔR/ΔRAD2 OA; entries follow
# assay protocol: Probe fluorescence ratio response to oleate:BSA complex, relative to ADIFAB2 (ΔR/ΔRAD2)
# Assay type: binding
# applied conditions: fluorescence response (R-Ro) relative to ADIFAB2; oleate
# Method: The intensity ratio (“R” value) for a given probe is determined. The ratio is calculated using the following formula: R=Fλ1/Fλ2 wherein, Fλ1, is the measured fluorescence intensities (intensity of sample with probe present minus intensity of sample without probe present) at wavelength 1 and Fλ2 is the measured fluorescence intensities (intensity of sample with probe present minus intensity of sample without probe present) at wavelength 2. […] Plates were prepared and read in two stages. […]
Answer using only a numeral; do not append any unit.

| molecule | ΔR/ΔRAD2 OA |
| --- | --- |
| L72M: acrylodan-labeled rI-FABP mutein L72M (protein) AFDGTWKVDRNENYEKFMEKMGINVVKRKLGAHDNLKLTITQEGNKFTVKESSNFRNIDVVFELGVDFAYSMADGTELTGTWTMEGNKLVGKFKRVDNGKELIAVREISGNELIQTYTYEGVEAKRIFKKE | 1.49 |

Let me know recorded ΔR/ΔRAD2 OA for L72G: acrylodan-labeled rI-FABP mutein L72G (protein) AFDGTWKVDRNENYEKFMEKMGINVVKRKLGAHDNLKLTITQEGNKFTVKESSNFRNIDVVFELGVDFAYSGADGTELTGTWTMEGNKLVGKFKRVDNGKELIAVREISGNELIQTYTYEGVEAKRIFKKE , thanks. 0.52
